# TARGET_ENTITY: MAP2K3 (Homo sapiens, UniProt P46734)
# Sequence (P46734 whole entry): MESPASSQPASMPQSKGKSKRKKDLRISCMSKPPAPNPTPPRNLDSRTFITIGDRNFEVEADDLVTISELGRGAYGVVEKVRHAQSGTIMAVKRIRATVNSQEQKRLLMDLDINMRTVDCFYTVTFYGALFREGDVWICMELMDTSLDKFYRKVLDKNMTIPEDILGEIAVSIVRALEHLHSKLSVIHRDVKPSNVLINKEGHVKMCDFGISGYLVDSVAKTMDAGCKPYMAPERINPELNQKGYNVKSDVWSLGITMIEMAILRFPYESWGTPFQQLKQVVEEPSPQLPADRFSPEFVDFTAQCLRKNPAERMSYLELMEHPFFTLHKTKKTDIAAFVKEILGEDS
pIC50: −log10 of the molar value.
RESULT_TYPE: pIC50

Which value of pIC50 has been reported for CC(C)CCN[C@@H]1CCc2cc(O)c(N3CC(=O)NS3(=O)=O)c(F)c2C1 in the records?
< 5.00

---

# TARGET_ENTITY: Src (Homo sapiens)
# Sequence (P12931 whole entry): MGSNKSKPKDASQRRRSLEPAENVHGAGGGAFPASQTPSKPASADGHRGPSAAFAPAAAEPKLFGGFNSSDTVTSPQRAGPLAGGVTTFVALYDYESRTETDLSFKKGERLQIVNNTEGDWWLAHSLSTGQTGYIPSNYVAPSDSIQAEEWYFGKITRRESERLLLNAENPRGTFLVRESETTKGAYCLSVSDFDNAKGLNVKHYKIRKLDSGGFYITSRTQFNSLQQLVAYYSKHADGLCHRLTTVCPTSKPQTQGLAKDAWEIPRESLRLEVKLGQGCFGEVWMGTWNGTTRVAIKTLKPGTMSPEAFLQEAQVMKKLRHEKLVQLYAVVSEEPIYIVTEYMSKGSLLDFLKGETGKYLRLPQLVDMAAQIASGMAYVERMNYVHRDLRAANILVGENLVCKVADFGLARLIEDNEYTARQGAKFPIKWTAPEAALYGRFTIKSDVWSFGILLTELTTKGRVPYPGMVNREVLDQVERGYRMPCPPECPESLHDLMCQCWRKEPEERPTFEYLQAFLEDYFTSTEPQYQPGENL
# EXPERIMENT_DESCRIPTION: biochemical
# Parameters: Kinase selectivity panel, IC50 of AC484 (Supplementary Table 1)
RESULT_TYPE: IC50

Query (compound): CC(C)CCN[C@@H]1CCc2cc(O)c(N3CC(=O)NS3(=O)=O)c(F)c2C1 ; field requested: IC50
> 10 µM
